Hey, just so you know, these numbers are from patent US7524853B2.

- Study System: 17β-hydroxysteroid dehydrogenase type 2 (17β-HSD type 2) (Homo sapiens)
- Construct: expressed in transfected cells; host or cells: MCF-7
- Sequence (P37059 1-387): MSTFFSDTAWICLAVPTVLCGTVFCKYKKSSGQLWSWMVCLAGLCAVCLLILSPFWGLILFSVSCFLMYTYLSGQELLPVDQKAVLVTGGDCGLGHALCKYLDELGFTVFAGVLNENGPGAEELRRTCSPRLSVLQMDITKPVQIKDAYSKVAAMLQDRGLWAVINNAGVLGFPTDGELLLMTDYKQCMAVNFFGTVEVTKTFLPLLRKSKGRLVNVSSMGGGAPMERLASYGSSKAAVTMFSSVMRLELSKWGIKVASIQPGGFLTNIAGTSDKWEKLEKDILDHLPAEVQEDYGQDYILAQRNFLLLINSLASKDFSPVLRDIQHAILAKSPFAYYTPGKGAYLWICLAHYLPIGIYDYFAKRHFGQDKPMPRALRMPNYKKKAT
- Assay Details: Inhibition of 17β-HSD type 2 in MCF-7 cells stably expressing the isoenzyme (tritium labeled estradiol conversion, HPLC)
- Format: cell-based
- Conditions Used: MCF7; 10 μM test compound; MCF-7 cells expressing 17β-HSD type 2; 2 nM tritium labeled estradiol; read-out: % Inhibition HSD2 10 μM
Measured Metric: inhibition at 10 µM (%)

Solved cases below.
COc1ccc(-c2nc3sc4c(c3c(=O)n2-c2ccccc2)CCCC4=O)cc1	9.4
COc1cc(-c2nc3sc4c(OC)cccc4c3c(=O)n2Cc2ccccc2)c(Br)c(OC)c1OC	33.7
CCOC1=C(C=O)CCc2c1sc1nc(-c3cc(OC)c(OC)c(OC)c3)n(Cc3ccccc3)c(=O)c21	27
O=C(OCCn1c(-c2cccs2)nc2sc3c(c2c1=O)CCC(Br)C3=O)c1cccs1 (stereo not drawn)	24.5
CCSC1=C(C=O)CCc2c1sc1nc(-c3cc(OC)c(OC)c(OC)c3)n(Cc3ccccc3)c(=O)c21	29.7

(I) CCCc1nc2sc3c(c2c(=O)n1Cc1ccccc1OC)CCCC3=O
(II) CC(=O)OCc1nc2sc3c(c2c(=O)n1-c1ccccc1)CCCC3
(III) CCCc1nc2sc3c(OC(C)=O)cccc3c2c(=O)n1Cc1ccc(Br)o1
List items by inhibition at 10 µM in falling order. I would appreciate it if you listed the labels in the requested order.
III, I, II
(III: 86.2%, I: 31.2%, II: 9.5%)

----------
- Study System: 17β-hydroxysteroid dehydrogenase type 3 (17β-HSD type 3) (Homo sapiens, UniProt P37058)
- Construct: expressed in transfected cells; host or cells: MCF-7
- Sequence (P37058 whole entry): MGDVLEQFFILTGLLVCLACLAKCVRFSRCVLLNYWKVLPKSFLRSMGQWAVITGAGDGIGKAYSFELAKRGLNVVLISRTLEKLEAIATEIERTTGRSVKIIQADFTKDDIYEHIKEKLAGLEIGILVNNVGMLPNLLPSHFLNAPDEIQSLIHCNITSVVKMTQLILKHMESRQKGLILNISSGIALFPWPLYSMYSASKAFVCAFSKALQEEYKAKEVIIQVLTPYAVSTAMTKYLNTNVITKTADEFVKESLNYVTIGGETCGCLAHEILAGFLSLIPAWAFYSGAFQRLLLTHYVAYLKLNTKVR
- Assay Details: Inhibition of 17β-HSD type 3 in MCF-7 cells stably expressing the isoenzyme (tritium labeled androstenedione conversion, HPLC)
- Type: cell-based
- Conditions Used: MCF7; 10 μM test compound; MCF-7 cells expressing 17β-HSD type 3; 2 nM tritium labeled androstenedione; read-out: % Inhibition HSD3 10 μM
Measured Metric: inhibition at 10 µM (%)

COCc1nc2sc3c(c2c(=O)n1Cc1ccccc1)CCC(C=O)=C3Cl	100
CC(=O)Oc1c(Br)ccc2c1sc1nc(-c3ccccc3)n(Cc3ccccc3)c(=O)c12	26.1
CCC(C)Cn1c(-c2cc(OC)c(OC)c(OC)c2)nc2sc3c(c2c1=O)CCCC3=O (centres unmarked)	36.3
COc1ccc(-c2nc3sc4cc(C=O)ccc4c3c(=O)n2Cc2ccccc2)cc1	100
COc1cc(-c2nc3sc4c(c3c(=O)n2Cc2ccccc2)C(C)CC(Br)C4=O)c(Br)c(OC)c1OC (centres unmarked)	13.8

(a) COCc1nc2sc3c(c2c(=O)n1Cc1ccccc1)CCCC3
(b) O=C(OCCn1c(-c2cccs2)nc2sc3c(c2c1=O)CCC(Br)(Br)C3=O)c1cccs1
(c) CCSc1c(C=O)ccc2c1sc1nc(-c3ccc(OC)cc3)n(Cc3ccccc3)c(=O)c12
Would you mind ranking these molecules by ascending inhibition at 10 µM? Returns: the labels arranged in the requested order.
a, b, c

(I) CCC(C)Cn1c(-c2cc(OC)c(OC)c(OC)c2Cl)nc2sc3c(c2c1=O)CCC(Cl)(Cl)C3=O (centres unmarked)
(II) CCC(C)Cn1c(-c2cc(OC)c(OC)c(OC)c2Br)nc2sc3c(c2c1=O)CCC(Br)(Br)C3=O (centres unmarked)
(III) COCCn1c(-c2cc(OC)c(OC)c(OC)c2)nc2sc3c(c2c1=O)CCCC3
Kindly order the items shown according to inhibition at 10 µM, from the highest value down. When ranking, write the labels in the order the request describes.
I, III, II
(I: 24.1%, III: 9.8%, II: 6.3%)
